# SYSTEM_NAME: Eukaryotic translation initiation factor 4H (Homo sapiens)
# MEASUREMENT_DESCRIPTION: human eIF4H binding inhibitors, primary screen, translation initiation inhibitor project, biochemical, uHTS, fluorescence polarization (AID 2012);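 also: calls also rest on retests at 20 µM and on dose response follow-up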
# MEASUREMENT_CONTEXT: eIF4H fluorescence polarization binding assay; at 35 µM; stronger effect = higher value
Screen size: about 290,000 compounds; about 2,700 (0.93%) were called active. Shown is part of a subset that was picked to be rich in actives.
// values below are reported inhibition
Output spec: scalar in %, unitless text.

The cases that follow already have their inhibition on record.
C=CCn1c(=O)c(C(=O)Nc2ncccc2O)c(O)c2ccccc21 :: 22
CC(=O)NCCNC(=O)c1cc(-c2cccc3ccccc23)nc2ccccc12 :: 0.8
CCOc1ccc(NC(=S)N2CCC(NC(=O)c3ccccc3)CC2)cc1 :: -8.9
COc1cccc(CC(=O)Nc2nc(-c3ccc(OC)c(OC)c3)cs2)c1 :: 6.8
COc1ccccc1N(C)C(=O)c1cc(S(=O)(=O)N2CCc3ccccc32)cn1C :: -9.4
COc1ccc(OC)c(Nc2nc(-c3ccc(O)c(O)c3)cs2)c1 :: 65.5

Please look up its inhibition: COc1ccc(C(=O)OCC(=O)NCC2CCCCC2)cc1S(=O)(=O)N1CCCc2ccccc21
-7.1

# inhibition lookup, item CCN(C(=O)COC(=O)c1cc(S(=O)(=O)N2CCc3ccccc32)ccc1OC)C1CCS(=O)(=O)C1 (stereo not given)
3.9

For Cc1ccc(S(=O)(=O)N2CCC(C)CC2)cc1C(=O)NCc1ccccn1 , what is its reported inhibition?
-2.5

Report inhibition for COc1ccc(-c2csc(Nc3ccc(O)cc3)n2)cc1 please.
9.7

---

# SYSTEM_NAME: Eukaryotic translation initiation factor 4H (Homo sapiens) (UniProt Q15056)
# MEASUREMENT_DESCRIPTION: human eIF4H binding inhibitors, primary screen, translation initiation inhibitor project, biochemical, uHTS, fluorescence polarization (AID 2012);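 also: calls also rest on retests at 20 µM and on dose response follow-up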
# MEASUREMENT_CONTEXT: eIF4H fluorescence polarization binding assay; at 35 µM; stronger effect = higher value
Hit rate of the full screen: of about 290,000 compounds, about 2,700 (0.93%) were called active. The sample as a whole holds a higher share of actives than the screen did.
RECORDED_ENDPOINT: inhibition (%)
Use % as the unit, but write only the number.

Cc1[nH]n(C(N)=S)c(=O)c1N=Nc1ccc(Cl)cc1Cl :: 13.7

Param item = CCCc1ccc(OCC(O)CN2CCN(CCO)CC2)cc1 (stereo unspecified) ; retrieve measured inhibition.
-2.4

Recorded inhibition for CCN(CC)S(=O)(=O)c1ccc(-c2cn3ccc(C)cc3n2)cc1 , please?
1.1

What value of measured inhibition is listed for COc1cc(OC)c(NC(=O)C2CCCN2C(=O)OCc2ccccc2)cc1Cl (stereo unspecified) ?
-2

Reported inhibition for CSCCC(NC(=O)c1ccco1)C(=O)OCC(=O)Nc1ncc(Cl)c(C)c1Cl (stereo unspecified) : what is it?
4.5

---

# SYSTEM_NAME: Eukaryotic translation initiation factor 4H (Homo sapiens) (UniProt Q15056)
# MEASUREMENT_DESCRIPTION: human eIF4H binding inhibitors, primary screen, translation initiation inhibitor project, biochemical, uHTS, fluorescence polarization (AID 2012);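 also: calls also rest on retests at 20 µM and on dose response follow-up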
# MEASUREMENT_CONTEXT: eIF4H fluorescence polarization binding assay; at 35 µM; stronger effect = higher value
Screen size: about 290,000 compounds; about 2,700 (0.93%) were called active. What follows is part of a selection rich in actives, with near analogues and random picks from the rest.
Would you please tag the item y when its inhibition is 40% or above, and n when it is below?

Nc1nc(-c2ccccc2)cc(-c2ccccc2)n1 :: n
COCCN1C=C2C(=O)C(C)(OC(=O)C3CCCC3)C(=O)C=C2C=C1c1ccsc1 (stereo not given) :: y
O=C(O)CC(c1ccccc1F)N1Cc2ccccc2C1=O (stereo not given) :: n
CC1(OC(=O)CCc2ccccc2)C(=O)C=C2C=C(c3ccc(C#N)cc3)N(CCc3ccccn3)C=C2C1=O (stereo not given) :: n

Determine whether measured inhibition meets or exceeds 40% for CS(=O)(=O)c1sc2nc(-c3ccccc3)cc(-c3ccccc3)c2c1N
y
